- Species: Homo sapiens
- measurementDescription: Selectivity index, ratio of IC50 for human recombinant MAO-A expressed in insect cells microsomes to IC50 for human recombinant MAO-B expressed in insect cells microsomes
readout: Ratio IC50

NS(=O)(=O)c1ccc(C(=O)NNC(=O)c2ccccc2)cc1	< 0.6
Cc1ccc(-c2nnc(-c3ccccc3)o2)cc1S(N)(=O)=O	> 130

Field: next compound
Using known records, supply Ratio IC50 for NS(=O)(=O)c1cc(-c2nnc(-c3ccccc3)o2)ccc1Cl
> 228

---

Here's a batch of molecules along with measured IC50 for UniProt P27338.
Sequence (P27338 whole entry): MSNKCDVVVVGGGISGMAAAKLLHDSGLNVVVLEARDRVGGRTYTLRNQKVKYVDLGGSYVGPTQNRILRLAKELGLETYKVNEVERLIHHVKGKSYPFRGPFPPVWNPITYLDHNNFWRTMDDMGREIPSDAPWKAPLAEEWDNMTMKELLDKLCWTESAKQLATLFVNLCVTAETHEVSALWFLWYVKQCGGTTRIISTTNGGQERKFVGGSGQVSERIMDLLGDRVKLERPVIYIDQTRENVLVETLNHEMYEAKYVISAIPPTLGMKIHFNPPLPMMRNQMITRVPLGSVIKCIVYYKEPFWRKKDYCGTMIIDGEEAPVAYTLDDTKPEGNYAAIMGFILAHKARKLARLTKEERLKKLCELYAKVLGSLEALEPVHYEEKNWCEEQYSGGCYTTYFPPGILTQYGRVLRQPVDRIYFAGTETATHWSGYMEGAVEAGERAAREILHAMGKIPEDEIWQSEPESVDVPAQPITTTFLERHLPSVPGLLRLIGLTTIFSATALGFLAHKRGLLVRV
Field format: number, assumed nM, no unit text.

Below, 2 molecules whose answers are already recorded.
NS(=O)(=O)c1ccc(-c2nnc(-c3ccc(F)cc3)o2)cc1	79
N#Cc1ccc(-c2nnc(-c3ccc(S(N)(=O)=O)cc3)o2)cc1	318

Field: next molecule
Param request: IC50 | system UniProt P27338 | item NS(=O)(=O)c1cc(-c2nnc(-c3ccccc3)o2)ccc1Cl
439
